- SYSTEM TESTED: human Caspase 4 (CASP4), CASP4 (gene 837) (UniProt P49662)
- Sequence (P49662 whole entry, looked up): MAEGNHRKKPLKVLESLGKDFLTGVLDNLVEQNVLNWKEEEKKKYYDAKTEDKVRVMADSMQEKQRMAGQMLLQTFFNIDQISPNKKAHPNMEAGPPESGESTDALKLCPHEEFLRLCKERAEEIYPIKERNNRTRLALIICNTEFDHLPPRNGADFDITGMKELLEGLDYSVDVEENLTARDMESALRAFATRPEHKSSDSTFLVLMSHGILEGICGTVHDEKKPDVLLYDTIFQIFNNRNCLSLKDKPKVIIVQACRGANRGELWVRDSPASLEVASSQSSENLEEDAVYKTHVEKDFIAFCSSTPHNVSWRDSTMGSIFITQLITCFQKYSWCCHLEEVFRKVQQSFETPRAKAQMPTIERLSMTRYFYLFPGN
- PROCEDURE SUMMARY: NVS_ENZ_hCASP4: NovaScreen (NVS) Enzymatic Assay for human Caspase 4 (CASP4) (AID 2283143)
Inconclusive results are not listed. Activity calls are given as the source filed them. How the source made its calls: active means hit-call score of the fitted dose curve at least 0.9, where 1 is the maximum; inconclusive means response in the unintended direction; inactive means score below 0.9.
Possible outcomes: t for active, f for inactive

{"CPD SMILES": "CCCCc1ccc2c(n1)[C@@H](c1ccc(OC)cc1C[C@H](C)C(=O)O)[C@H](C(=O)O)[C@H]2c1ccc2c(c1)OCO2", "GROUP": "f"}
{"CPD SMILES": "Cc1ccc(C(C)C)c(O)c1", "GROUP": "f"}
{"CPD SMILES": "CCOc1ccc2c(c1)C(C)=CC(C)(C)N2", "GROUP": "t"}

====

- PROCEDURE SUMMARY: APR_HepG2_CellLoss_72hr: Apredica 72-hour HepG2 Assay for Cell Loss (AID 2282915)
- RUN CONDITIONS: high-content imaging
Calls of active or inactive are those of the source. How the source made its calls: active means hit-call score of the fitted dose curve at least 0.9, where 1 is the maximum; inactive means score below 0.9.

{"COMPOUND": "CCCc1cc(=O)[nH]c(=S)[nH]1", "AC50": "inactive"}
{"COMPOUND": "Cc1ccc(Cl)cc1", "AC50": "inactive"}
{"COMPOUND": "FC(F)(F)C(F)(F)C(F)(F)C(F)(F)C(F)(F)C(F)(F)CCI", "AC50": "inactive"}
{"COMPOUND": "CCCCCCCCCCCCCCCCCC(=O)O", "AC50": "inactive"}
{"COMPOUND": "COc1cc(/C=C/C(=O)CC(=O)/C=C/c2ccc(O)c(OC)c2)ccc1O", "AC50": "9.56 µM (active)"}
{"COMPOUND": "CN1CCCC1=O", "AC50": "inactive"}
{"COMPOUND": "CCCCc1ccc2c(n1)[C@@H](c1ccc(OC)cc1C[C@H](C)C(=O)O)[C@H](C(=O)O)[C@H]2c1ccc2c(c1)OCO2", "AC50": "inactive"}
{"COMPOUND": "Oc1ccc2ccccc2c1N=Nc1ccccc1", "AC50": "0.606 µM (active)"}
{"COMPOUND": "CCOC(=O)CCC(=O)OCC", "AC50": "inactive"}
{"COMPOUND": "NCCO", "AC50": "inactive"}
{"COMPOUND": "CCCCCC(=O)O", "AC50": "inactive"}
{"COMPOUND": "CCCCCCOCCO", "AC50": "inactive"}
{"COMPOUND": "COCCOC[C@H](CC1(C(=O)NC2CCC(C(=O)O)CC2)CCCC1)C(=O)Oc1ccc2c(c1)CCC2 (some centres undefined)", "AC50": "inactive"}
{"COMPOUND": "C1CCC(SSC2CCCCC2)CC1", "AC50": "97.4 µM (active)"}
{"COMPOUND": "Nc1nc(N)c2nc(CNc3ccc(C(=O)N[C@@H](CCC(=O)O)C(=O)O)cc3)cnc2n1", "AC50": "inactive"}
{"COMPOUND": "CC(C)c1ccc(C(=O)N=C(N)N)cc1S(C)(=O)=O", "AC50": "inactive"}
{"COMPOUND": "C=CCc1ccc(O)c(OC)c1", "AC50": "inactive"}
{"COMPOUND": "COc1cccc2c1C(=O)c1c(O)c3c(c(O)c1C2=O)C[C@@](O)(C(=O)CO)C[C@@H]3O[C@H]1C[C@H](N)[C@H](O)[C@H](C)O1", "AC50": "0.0653 µM (active)"}
{"COMPOUND": "CCOC(=O)C(C)(C)Oc1ccc(Cl)cc1", "AC50": "inactive"}

====

- Read-out: Pselectin, SELP (gene 6403)
- PROCEDURE SUMMARY: BSK_4H_Pselectin: BioMAP Diversity Plus: 4H Assay for Pselectin Biomarker Activity (AID 2283026)
- RUN CONDITIONS: primary human endothelial cells (HUVEC); actives raise or lower the signal
Active and inactive are the calls of the source. The calls were made as follows: active = hit-call score of the fitted dose curve at least 0.9, where 1 is the maximum; inactive = score below 0.9.

{"CPD SMILES": "Nc1ccccc1N", "outcome": "inactive"}
{"CPD SMILES": "CC(=O)Oc1ccccc1C(=O)O", "outcome": "inactive"}
{"CPD SMILES": "CCCCN(CCCC)CCCC", "outcome": "inactive"}
{"CPD SMILES": "O=[N+]([O-])C(CO)(CO)CO", "outcome": "inactive"}
{"CPD SMILES": "Nc1ccc(S(=O)(=O)c2ccc(N)cc2)cc1", "outcome": "inactive"}
{"CPD SMILES": "CC(=O)OCCOCCOCCOC(C)=O", "outcome": "inactive"}

====

- Read-out: Caspase-3 (Homo sapiens)
- PROCEDURE SUMMARY: LTEA_HepaRG_CASP3: Life Technologies and Expression Analysis (LTEA) Assay for cysteine-aspartic acid protease (CASP3) using HepaRG (AID 2283477)
- RUN CONDITIONS: mRNA level, 48 h; actives raise or lower the signal
Activity calls are given as the source filed them. The calls were made as follows: active = hit-call score of the fitted dose curve at least 0.9, where 1 is the maximum; inactive = score below 0.9.
Possible outcomes: active, inactive

{"CPD SMILES": "O=C(N[C@@H](Cc1ccccc1)[C@@H](O)C(=O)N1C[C@@H](O)[C@@H](O)C1)c1cc2cc(Cl)ccc2[nH]1", "GROUP": "inactive"}
{"CPD SMILES": "C=CCc1ccc(O)c(OC)c1", "GROUP": "inactive"}
{"CPD SMILES": "COCCOCCOC", "GROUP": "active"}
{"CPD SMILES": "OC[C@@H](O)[C@@H](O)[C@H](O)[C@H](O)CO", "GROUP": "inactive"}
{"CPD SMILES": "CCc1c(C(=O)NN2CCCCC2)nn(-c2ccc(Cl)cc2Cl)c1-c1ccc(Br)cc1", "GROUP": "active"}
{"CPD SMILES": "O=C(O)CCCCC(=O)O", "GROUP": "inactive"}
{"CPD SMILES": "NC(=O)Cn1c(=O)cc(CCN2CCN(c3nccc4sccc34)CC2)c2ccc(F)cc21", "GROUP": "inactive"}
{"CPD SMILES": "CC=Cc1ccc(O)c(OC)c1", "GROUP": "inactive"}
{"CPD SMILES": "Cc1ccc(Cl)cc1", "GROUP": "inactive"}
{"CPD SMILES": "CCCCc1ccc2c(n1)[C@@H](c1ccc(OC)cc1C[C@H](C)C(=O)O)[C@H](C(=O)O)[C@H]2c1ccc2c(c1)OCO2", "GROUP": "inactive"}

====

- PROCEDURE SUMMARY: ATG_ISRE_CIS: Attagene CIS-FACTORIAL HepG2 Assay for human Interferon Regulatory Factor 1 (IRF1) binding to an Interferon-Stimulated Response Element (ISRE) (AID 2282948)
- RUN CONDITIONS: HepG2 ISRE cis-reporter (Attagene), mRNA transcription readout; actives raise or lower the signal
Activity calls are given as the source filed them. Rule for the calls: active = hit-call score of the fitted dose curve at least 0.9, where 1 is the maximum; inactive = score below 0.9.
Possible outcomes: Yes for active, No for inactive

{"CPD SMILES": "COc1cc(/C=C/C(=O)CC(=O)/C=C/c2ccc(O)c(OC)c2)ccc1O", "GROUP": "Yes"}
{"CPD SMILES": "Cc1ccc(N(C)C)cc1", "GROUP": "No"}
{"CPD SMILES": "Cc1ccc(C(C)C)c(O)c1", "GROUP": "No"}
{"CPD SMILES": "CNCc1cc(F)ccc1Oc1ccc(Cl)c(Cl)c1", "GROUP": "No"}
{"CPD SMILES": "Cc1cccc(Nc2cc(Cl)nc(SCC(=O)O)n2)c1C", "GROUP": "No"}
{"CPD SMILES": "O=C(O)CCCCC(=O)O", "GROUP": "No"}
{"CPD SMILES": "Cc1ccc2ncccc2c1", "GROUP": "No"}
{"CPD SMILES": "CCOC(=O)CCC(=O)OCC", "GROUP": "No"}
{"CPD SMILES": "CCCCCCC(=O)OCC", "GROUP": "No"}
{"CPD SMILES": "c1cc(-c2ccncc2)ccn1", "GROUP": "No"}
{"CPD SMILES": "Nc1ccc(S(=O)(=O)c2ccc(N)cc2)cc1", "GROUP": "No"}
{"CPD SMILES": "COc1cc(C=O)ccc1O", "GROUP": "No"}
{"CPD SMILES": "FC(F)(F)C(F)(F)C(F)(F)C(F)(F)C(F)(F)C(F)(F)CCI", "GROUP": "No"}
{"CPD SMILES": "CCCCCCCCCCO", "GROUP": "No"}

====

- PROCEDURE SUMMARY: Tanguay_ZF_120hpf_JAW_legacy: (Legacy) Oregon State University Tanguay Lab 120 Hour Post-fertilization zebrafish Assay for Jaw Malformation (AID 2283638)
Results filed as inconclusive are left out. Activity calls are given as the source filed them. The calls were made as follows: active = hit-call score of the fitted dose curve at least 0.9, where 1 is the maximum; inconclusive = response in the unintended direction; inactive = score below 0.9.
Possible outcomes: TRUE (active), FALSE (inactive)

{"CPD SMILES": "CC=Cc1ccc(O)c(OC)c1", "GROUP": "FALSE"}
{"CPD SMILES": "Oc1ccc2ccccc2c1N=Nc1ccccc1", "GROUP": "TRUE"}
{"CPD SMILES": "Nc1ccccc1N", "GROUP": "TRUE"}
{"CPD SMILES": "Cc1ccc(Cl)cc1", "GROUP": "FALSE"}
{"CPD SMILES": "COc1cc(S(=O)(=O)O)c(C)cc1N=Nc1c(O)ccc2cc(S(=O)(=O)O)ccc12", "GROUP": "FALSE"}
{"CPD SMILES": "NCCO", "GROUP": "FALSE"}
{"CPD SMILES": "CCCCCCOCCO", "GROUP": "FALSE"}
{"CPD SMILES": "CCCCOC(=O)CCCCCCCCC(=O)OCCCC", "GROUP": "FALSE"}
{"CPD SMILES": "CN[C@H]1CC[C@@H](c2ccc(Cl)c(Cl)c2)c2ccc(S(N)(=O)=O)cc21", "GROUP": "FALSE"}
{"CPD SMILES": "O=[N+]([O-])C(CO)(CO)CO", "GROUP": "FALSE"}
{"CPD SMILES": "CCNc1cccc(C)c1", "GROUP": "FALSE"}
